Source: the supplement of paper PMC9732359

Assay: protein stability index of a GFP-peptide fusion (yeast GPS) (PSI 1-4); higher = more stable; sorted into four equal gates, so the index is relative within each strain
Conditions: doa10∆
Param threshold (3) applies to protein stability index; output Condition met when value >= threshold, Condition not met when value < threshold.

Sample answers from the record:
| ORDERED RESIDUES | CATEGORY LABEL |
| --- | --- |
| KDILNLASEVGDPALVY [ECM29] | Condition not met |
| VGVGKLNKLYGGAKSRG [RPS19A] | Condition met |
| LKKQLHVSHEAMREVND [YIL149C/MLP2] | Condition not met |
| FKLDKDTSNWELSDSWR [YGL100W/SEH1] | Condition met |
| EALQYDPQPFLKHVLQL [SNU114] | Condition not met |
| SDKTIVPTSIQTKRWPT [SIN4] | Condition not met |
| ELENNEFTENELNVDSM [ITC1] | Condition met |
| NNNPLQQQSSQNTVPNV [GAL11] | Condition not met |

Turning now to a further record.
Dear colleague, could you confirm whether IAFASNYGIVELDPECQ [RRP43] has protein stability index at or above 3?
Condition not met
